Read-out: CYP2E1 (gene 1571)
ASSAY NAME: LTEA_HepaRG_CYP2E1: Life Technologies and Expression Analysis (LTEA) Assay for CYP2E1 using HepaRG (AID 2283485)
CONDITION INFO: mRNA level, 48 h; actives raise or lower the signal
Procedure: LTEA_HepaRG is a cell based, multiplexed-readout assay that uses HepaRG, a human liver cell line, with measurements taken at 48 hours after chemical dosing on a 96-well plate.LTEA_HepaRG_CYP2E1 is one of 102 assay component(s) measured in the LTEA HepaRG cell culture assay. It is a marker of NR mediated metabolism.Data from the assay component LTEA_HepaRG_CYP2E1 was analyzed into 1 endpoint. […]
Active and inactive are the calls of the source. The calls were made as follows: active = hit-call score of the fitted dose curve at least 0.9, where 1 is the maximum; inactive = score below 0.9.
Classes used: TRUE = active, FALSE = inactive

COMPOUND	GROUP LABEL
CCCCCCCCOc1ccc(C(=O)c2ccccc2)c(O)c1	FALSE
Cc1cc(F)ccc1-c1cc(N2CC[C@@H](O)[C@H]2CO)ncc1N(C)C(=O)C(C)(C)c1cc(C(F)(F)F)cc(C(F)(F)F)c1	TRUE
COc1cccc([C@H](O)C2CCN(CCc3ccc(F)cc3)CC2)c1OC	TRUE
O=C1CCC(C2CCCCC2)CC1	FALSE
CC(O)CC(C)(C)O (stereo unspecified)	FALSE
COc1cc(C(=O)NC2CCN(C)CC2)ccc1Nc1ncc2c(n1)N(C1CCCC1)CC(F)(F)C(=O)N2C	TRUE
